Test: Enthalpy of sulfonamide protonation by ITC
Conditions: protonation of sulfonamide group, 37°C
ASSAY_READOUT: ΔHprot (kcal/mol)

> print(dat)
                             chem.smiles  numeric.readout
1    NS(=O)(=O)c1cccc(C(=O)CSc2ncccn2)c1             -7.1
2  NS(=O)(=O)c1cc(C(=O)CSc2ncccn2)ccc1Cl            -5.81
3  NS(=O)(=O)c1ccc(C(=O)CSc2ncccn2)cc1Cl            -5.81
4    NS(=O)(=O)c1ccc(C(=O)CSc2ncccn2)cc1             -7.1
